Cited source for all entries: patent US9029508

pEC50 listing for selected binders.
# assay system: IGF1 (human, UniProt P05019)
# assay: ELISA
pEC50 field: float, defined as -log10 of concentration (mol/L).

Known pEC50 results, listed for orientation:
Prompt: Which measured pEC50 value corresponds to DVD030 IGF1,2 arm (antibody, V domains shown, DVD-Ig outer) VH: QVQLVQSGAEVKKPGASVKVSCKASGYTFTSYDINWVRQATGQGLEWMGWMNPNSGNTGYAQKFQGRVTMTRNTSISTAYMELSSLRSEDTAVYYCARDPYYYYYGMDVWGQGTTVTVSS VL: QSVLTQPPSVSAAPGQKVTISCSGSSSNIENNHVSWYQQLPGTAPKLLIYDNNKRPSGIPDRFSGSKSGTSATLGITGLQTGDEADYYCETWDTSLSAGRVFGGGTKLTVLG ?
Response: 8.76

Prompt: Quick one: pEC50 for DVD042 IGF1,2 arm (antibody, V domains shown, DVD-Ig outer) VH: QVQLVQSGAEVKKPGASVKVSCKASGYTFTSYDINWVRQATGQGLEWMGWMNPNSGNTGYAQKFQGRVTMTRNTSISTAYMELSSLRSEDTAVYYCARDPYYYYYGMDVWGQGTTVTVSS VL: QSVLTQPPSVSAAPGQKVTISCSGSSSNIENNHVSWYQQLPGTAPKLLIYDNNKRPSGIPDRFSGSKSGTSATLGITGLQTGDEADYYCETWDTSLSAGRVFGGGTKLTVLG ?
Response: 8.60

Prompt: Consider the binder shown here: DVD029 IGF1,2 arm (antibody, V domains shown, DVD-Ig inner) VH: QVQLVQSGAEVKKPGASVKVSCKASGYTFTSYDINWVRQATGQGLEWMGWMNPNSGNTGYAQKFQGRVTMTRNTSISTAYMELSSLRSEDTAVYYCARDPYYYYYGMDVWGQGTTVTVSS VL: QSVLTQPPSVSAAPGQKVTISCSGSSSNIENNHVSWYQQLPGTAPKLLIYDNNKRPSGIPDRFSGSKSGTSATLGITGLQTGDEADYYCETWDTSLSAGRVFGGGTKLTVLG What is its recorded pEC50?
Response: 6.64

Alright, here's another binder for you.
Prompt: Requested read-out: pEC50. Entry: AB010 (antibody, V domains shown) VH: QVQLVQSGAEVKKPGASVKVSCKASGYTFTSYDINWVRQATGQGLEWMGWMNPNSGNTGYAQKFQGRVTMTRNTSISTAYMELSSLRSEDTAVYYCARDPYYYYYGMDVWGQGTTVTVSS VL: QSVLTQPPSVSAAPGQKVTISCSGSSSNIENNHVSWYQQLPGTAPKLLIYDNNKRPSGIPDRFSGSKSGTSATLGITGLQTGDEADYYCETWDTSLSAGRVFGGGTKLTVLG
Response: 8.32
